experiment: Cell Viability - H-4-II-E (AID 543); conditions: H-4-II-E rat hepatoma viability; series mostly up to 92.2 µM;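 further: cells exposed to compound for 40 hours; nearly all actives have a fitted effect of over 35% in size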
Results filed as inconclusive are left out. Calls of active or inactive are those of the source. The call rests on the fitted dose curve; in most records, active means well fitted cell-killing curve with a large enough effect; inconclusive means small, poorly fitted or top-dose-only effect; inactive means flat fitted curve, though single readings scatter.
Just give me one of these, please: yes for active, no for inactive

compound=CC(C)=CCC/C(C)=C/C=O category=no

Dear colleague, could you share the recorded outcome for CCCCCCCCCCCCC1CO1 (configuration not stated) when you have a moment?
no

Dear colleague, could you share the recorded outcome for O=Cc1c(Cl)cccc1Cl when you have a moment?
no

Dear colleague, could you share the recorded outcome for Cc1cccc2ccccc12 when you have a moment?
no

Dear colleague, could you share the recorded outcome for CC1=C(/C=C/C(C)=C/C=C/C(C)=C\C=O)C(C)(C)CCC1 when you have a moment?
yes
